meta.source: the supplement of paper PMC10567573

Assign protein stability index to each entry below.
B1: KRT18 (parent)
chain: RVRSLETENRRLESKIREHLEKKG

Variants of: B1
Assay: protein stability index of a GFP-peptide fusion (GPS, HEK-293T) (PSI 1-6); higher = more stable;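 further: lentivirally expressed fusions sorted by FACS into six bins by GFP to DsRed ratio, PSI derived from sequencing read proportions per bin multiplied by bin number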
Settings: c terminus: a fixed tail appended

Here are 4 variants together with their reported answers.
G24K :: 4.57
R10T :: 4.71
S14Q :: 4.99
T7Y :: 4.47

Give protein stability index for all variants that follow.
1. K22F
2. K23S
3. L12Q
4. K15Y
5. V2D

1. 4.16
2. 4.52
3. 5.19
4. 4.7
5. 4.83

Give protein stability index for all variants that follow.
1. K22A
2. R10F
3. R11N
4. E13C
5. E21V
6. I16Y
7. S4E

1: 3.65; 2: 4.76; 3: 4.35; 4: 4.3; 5: 3.93; 6: 4.63; 7: 4.48

Give protein stability index for all variants that follow.
1. N9Q
2. I16T
3. K23F
4. E13Y
5. L12C

[4.74, 4.29, 3.76, 3.05, 4.78]

Retrieve protein stability index measured for K22T and print it.
4.45
